- target-or-system: Nrf2-Keap1 complex (Homo sapiens, UniProt Q14145)
- Sequence (Q14145 whole entry, one chain of several): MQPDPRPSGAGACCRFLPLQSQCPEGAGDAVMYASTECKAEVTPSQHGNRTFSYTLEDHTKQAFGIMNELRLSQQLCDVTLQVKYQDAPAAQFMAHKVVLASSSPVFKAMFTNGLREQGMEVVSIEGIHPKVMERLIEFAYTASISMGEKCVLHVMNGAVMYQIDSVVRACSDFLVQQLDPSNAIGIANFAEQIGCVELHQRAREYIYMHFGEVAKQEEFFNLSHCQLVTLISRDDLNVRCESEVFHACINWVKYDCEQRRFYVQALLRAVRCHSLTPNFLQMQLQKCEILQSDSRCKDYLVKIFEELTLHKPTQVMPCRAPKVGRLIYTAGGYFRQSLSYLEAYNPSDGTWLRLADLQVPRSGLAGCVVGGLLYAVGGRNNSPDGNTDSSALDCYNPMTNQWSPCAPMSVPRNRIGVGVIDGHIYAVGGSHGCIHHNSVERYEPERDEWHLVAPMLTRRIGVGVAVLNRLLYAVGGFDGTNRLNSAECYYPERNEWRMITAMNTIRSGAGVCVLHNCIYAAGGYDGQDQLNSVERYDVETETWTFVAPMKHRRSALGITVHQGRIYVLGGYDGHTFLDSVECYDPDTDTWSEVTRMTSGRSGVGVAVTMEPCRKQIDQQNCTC
- protocol-details: cell-based
- Type: cell-based
Where a name gives a salt, the structure may show the parent alone.
readout-kind: 100 nL (luminescence)
// keep it numeric: no unit symbol after the value

Sure, the documented 100 nL (luminescence) for CNC(=O)Oc1cccc2c1OC(C)(C)O2 is 1532

C=C(C)[C@@H]1CC=C(CO)CC1 has a reported 100 nL (luminescence) of 824

The compound identified as Nc1ncnc2c1ncn2[C@H]1C[C@H](O)[C@@H](CO)O1 registered its 100 nL (luminescence) at 788

Reported 100 nL (luminescence) ( O=C(CCBr)N1CCN(C(=O)CCBr)CC1 [PIPOBROMAN, reference compound] ) = 1976

Kindly note the recorded 100 nL (luminescence) for O=S(=O)(O)CCS [MESNA, reference compound] , which is 952

So for C#C[C@]1(O)CC[C@H]2[C@@H]3CCC4=C(CCC(=O)C4)[C@H]3CC[C@@]21C [NORETHYNODREL, reference compound] , the logged 100 nL (luminescence) turned out to be 1948

The measured 100 nL (luminescence) associated with CC1CCC(NC(=O)N(CCCl)N=O)CC1 (stereo not drawn) [SEMUSTINE, reference compound] reads 1172

The recorded 100 nL (luminescence) for entry COC(=O)C(N)CS (stereo not drawn) [MECYSTEINEHYDROCHLORIDE, reference compound] equals 2028

100 nL (luminescence) reported for this compound CC(C)C1=CC2=CC[C@@H]3[C@](C)(CCC[C@@]3(C)C(=O)O)[C@H]2CC1 : 1256

Data provenance is patent US9200046B2.
